# experimental.system: human GHS-R 1a (Homo sapiens)
# Sequence (Q92847 whole entry): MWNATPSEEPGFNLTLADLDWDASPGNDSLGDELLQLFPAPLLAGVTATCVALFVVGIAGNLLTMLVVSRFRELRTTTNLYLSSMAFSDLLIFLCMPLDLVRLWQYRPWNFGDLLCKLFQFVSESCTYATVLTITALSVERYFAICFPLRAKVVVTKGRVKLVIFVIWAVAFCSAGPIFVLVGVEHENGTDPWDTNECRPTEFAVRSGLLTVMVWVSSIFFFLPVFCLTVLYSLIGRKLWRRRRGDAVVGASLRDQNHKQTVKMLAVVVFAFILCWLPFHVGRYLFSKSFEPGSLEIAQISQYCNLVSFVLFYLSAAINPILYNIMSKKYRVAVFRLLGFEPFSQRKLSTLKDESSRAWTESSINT
# test.details: In vitro intracellular calcium release assay using human GHS-R 1a transfected CHO cells
# Type: cell-based
# Design: expressed in transfected cells; host or cells: CHO-K1 Chinese hamster ovary cells (ATCC No. CCL-61), transient transfection by electroporation
# condition.label: antagonist dissociation constant, antagonist inhibition curves in the presence of 10^-7 M ghrelin, Cheng-Prusoff equation, Fluo-4 AM
parameter: Kb (nM)
Your answer is read as nM, so omit the unit and give the number.

Please review the following examples before continuing.
O=C(N[C@H](Cc1c[nH]c2ccccc12)c1nnc(CCc2ccccc2)n1Cc1cccc2ccccc12)C1CCOCC1	275
O=C(N[C@H](Cc1c[nH]c2ccccc12)c1nnc(CCCc2c[nH]c3ccccc23)n1Cc1ccccc1)c1ccccn1	300
O=C(Cc1ccccn1)N[C@H](Cc1c[nH]c2ccccc12)c1nnc(Cc2ccccc2)n1Cc1ccc(Cl)c(Cl)c1	340
COc1ccc(Cn2c(CCc3ccccc3)nnc2[C@@H](Cc2c[nH]c3ccccc23)NC(=O)c2ccn[nH]2)c(OC)c1	64
COc1ccc(Cn2c(CCc3cc4ccccc4[nH]3)nnc2[C@@H](Cc2c[nH]c3ccccc23)NC(=O)C2CCOCC2)c(OC)c1	40

Would you kindly look at the next entry?
Give reported Kb value for O=C(N[C@H](Cc1c[nH]c2ccccc12)c1nnc(Cc2ccccc2)n1Cc1ccc(Cl)c(Cl)c1)c1ccccn1
215
